# System tested: T1, PHD1_(KDM5B) E321A mutant (UniProt Q9UGL1 306-360, E321A)
# T1 construct: also called PHD1 E321A; source: recombinant from modified pGEX-6p-1, site-directed mutagenesis; not shown: GST, N-terminal, cleaved
# T1 sequence (looked up): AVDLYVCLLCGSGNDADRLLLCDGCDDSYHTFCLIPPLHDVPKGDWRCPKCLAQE
# Experimental protocol: ITC; ITC-200, 20 mmol/L Tris, 150 mmol/L NaCl, 1% Triton X-100, pH 7.5, 25°C
# Experimental setup: both partners purified
pKd: −log10 of the molar value.

Binder: ARTKQTARKS (histone H3 N-terminal tail, residues 1-10; also called H3K4me0; H3K4me0 peptide; source: synthetic peptide, bought: GL Biochem Ltd. (Shanghai, China)) [unmodified H3K4 peptide (residues 1-10)]
pKd: 4.12
